Hey, just so you know, these numbers are from PubChem BioAssay AID1745844.

# Test system: rodent lifetime carcinogenesis bioassay, tumor incidence TD50
# Measurement notes: carcinogenic potency in animals, long-term in vivo studies, CPDB compilation (AID 1745844)
# Experimental conditions: rat; strain Sprague-Dawley; males; in feed; site: kidney; lesion: squamous-cell carcinoma; dosed 112 weeks; study length 112 weeks
Parameter: TD50 (mg/kg/day)
Numbers only, in mg/kg/day.

(Q) Report TD50 under test system rodent lifetime carcinogenesis bioassay, tumor incidence TD50 for `S=C(SN1CCOCC1)N1CCOCC1` .
(A) 1390

----------
# Tested on: rodent lifetime carcinogenesis bioassay, tumor incidence TD50
# Measurement notes: carcinogenic potency in animals, long-term in vivo studies, CPDB compilation (AID 1745844)
# Experimental conditions: mouse; strain D2B6F1 mice; males; in feed; site: liver; lesion: hepatocellular adenoma; dosed 87 weeks; study length 87 weeks
Parameter: TD50

(Q) Give recorded TD50. ClC1=C(Cl)C2(Cl)C3C(Cl)C(Cl)CC3C1(Cl)C2(Cl)Cl (stereo unspecified)
(A) 4.98 mg/kg/day
